Test system: ECHSS: including barnyardgrass, (Echinochloa crus-galli), junglerice, (Echinochloa colonum)
ASSAY_SUMMARY: Postemergence Herbicidal Activity in Direct Seeded Rice
Format: in vivo
PROTOCOL_CONDITIONS: 35 g ai/ha, postemergence, direct seeded rice
TEST_READOUT: Visual Growth Reduction (%) 21 Days After Application, ECHSS

| MOL_SMILES | OBS_VALUE |
| --- | --- |
| COC(=O)c1nc(-c2ccc(C(F)(F)F)nc2)c(F)c(N)c1Cl | B (85-94) |
| COC(=O)c1nc(-c2ccc(C(F)(F)F)nc2)c(C)c(N)c1Cl | B (85-94) |

###

System: Key Grass and Sedge Weeds as well as Grass Crops
ASSAY_SUMMARY: Post-Emergent Test II (Table 6)
Type: in vivo
PROTOCOL_CONDITIONS: post-emergence, 336 h, DIGSA: crabgrass (Digitaria sanguinalis), 70 g ai/ha, 14 days after application, read-out: Visual Growth Reduction (%) 14 Days After Application DIGSA
Here, each record is paired with measured pest or weed control at 70 g/ha data.
TEST_READOUT: pest or weed control at 70 g/ha

| MOLECULE | TEST_READOUT | OBS_VALUE |
| --- | --- | --- |
| COC(=O)c1nc(-c2ccc(Cl)nc2F)c(F)c(N)c1Cl [Compound 45] | pest or weed control at 70 g/ha | 60 to 74% |
| COC(=O)c1nc(-c2ccc(C(F)(F)F)c(F)c2C)cc(N)c1Cl [Compound 9] | pest or weed control at 70 g/ha | 0 to 29% |
| C#Cc1c(-c2cc(N)c(Cl)c(C(=O)OC)n2)ccc(Cl)c1F [Compound 75] | pest or weed control at 70 g/ha | 0 to 29% |
| COc1c(N)nc(-c2ccc(Cl)c(F)c2C)nc1C(=O)O [Compound 64] | pest or weed control at 70 g/ha | 0 to 29% |
| COC(=O)c1nc(-c2ccc(C3CC3)nc2)c(F)c(N)c1Cl [Compound 49] | pest or weed control at 70 g/ha | 75 to 84% |
| COC(=O)c1nc(-c2ccc(Cl)c(Cl)c2C)cc(N)c1Cl [Compound 77] | pest or weed control at 70 g/ha | 0 to 29% |
| Nc1c(Cl)c(C(=O)O)nc(-c2ccc(C(F)(F)F)nc2)c1Cl [Compound 33] | pest or weed control at 70 g/ha | 45 to 59% |
| COC(=O)c1nc(-c2ccc(Cl)c(F)c2OC)nc(N)c1OC [Compound 70] | pest or weed control at 70 g/ha | 0 to 29% |
| COC(=O)c1nc(-c2ccc(F)c(F)c2C)cc(N)c1Cl [Compound 69] | pest or weed control at 70 g/ha | 0 to 29% |
| Cc1ccc(-c2nc(C(=O)O)c(Cl)c(N)c2F)cn1 [Compound 85] | pest or weed control at 70 g/ha | 0 to 29% |
| COC(=O)c1nc(-c2ccc(C(F)(F)F)nc2F)nc(N)c1Cl [Compound 47] | pest or weed control at 70 g/ha | 0 to 29% |
| COC(=O)c1nc(-c2ccc(C)nc2)c(F)c(N)c1Cl [Compound 90] | pest or weed control at 70 g/ha | 0 to 29% |
| Nc1c(F)c(-c2ccc(C(F)(F)F)nc2)nc(C(=O)O)c1Cl [Compound 46] | pest or weed control at 70 g/ha | 95 to 100% |
| COC(=O)c1nc(-c2ccc(Cl)c(F)c2C)nc(N)c1OC [Compound 63] | pest or weed control at 70 g/ha | 0 to 29% |
| Cc1c(F)c(Cl)cc(F)c1-c1cc(N)c(Cl)c(C(=O)O)n1 [Compound 92] | pest or weed control at 70 g/ha | 0 to 29% |
| Nc1c(F)c(-c2ccc(I)nc2)nc(C(=O)O)c1Cl [Compound 81] | pest or weed control at 70 g/ha | 75 to 84% |
| COc1nc(Cl)ccc1-c1cc(N)c(Cl)c(C(=O)O)n1 [Compound 57] | pest or weed control at 70 g/ha | 0 to 29% |
| COc1c(N)nc(-c2ccc(C(F)(F)F)nc2)nc1C(=O)O [Compound 5] | pest or weed control at 70 g/ha | 60 to 74% |
| COC(=O)c1nc(-c2ccc(Cl)c(F)c2CF)cc(N)c1Cl [Compound 78] | pest or weed control at 70 g/ha | 0 to 29% |
| COC(=O)c1nc(-c2ccc(Cl)c(F)c2OC)cc(N)c1Cl [Compound 20] | pest or weed control at 70 g/ha | 0 to 29% |
| Cc1c(-c2ccc(C(F)(F)F)nc2)nc(C(=O)O)c(Cl)c1N [Compound 51] | pest or weed control at 70 g/ha | 60 to 74% |
| Cc1c(-c2nc(C(=O)O)c(Cl)c(N)c2F)ccc(C(F)(F)F)c1F [Compound 55] | pest or weed control at 70 g/ha | 0 to 29% |
| Nc1cc(-c2ccc(Cl)c(Cl)c2Cl)nc(C(=O)O)c1Cl [Compound 93] | pest or weed control at 70 g/ha | 60 to 74% |
| Nc1cc(-c2ccc(Cl)c(F)c2C(=O)O)nc(C(=O)O)c1Cl [Compound 56] | pest or weed control at 70 g/ha | 0 to 29% |

###

System: SETVI (green foxtail)
ASSAY_SUMMARY: Post-Emergent Test III (Wheat and Barley)
Assay type: in vivo, Setaria viridis
PROTOCOL_CONDITIONS: Setaria viridis, post-emergence, 504 h; 70 g ai/ha, postemergence; read-out: Visual Growth Reduction (%) 21 Days After Application, SETVI
Recorded pest or weed control at 70 g/ha values for a group of molecules are listed next.

| MOL_SMILES | pest or weed control at 70 g/ha |
| --- | --- |
| COC(=O)c1nc(-c2ccc(C(F)(F)F)nc2)c(Cl)c(N)c1Cl | 60 to 74% |
| Cc1c(-c2ccc(C(F)(F)F)nc2)nc(C(=O)O)c(Cl)c1N | 85 to 94% |
| COC(=O)c1nc(-c2ccc(Cl)c(F)c2OC)c(F)c(N)c1Cl | 0 to 29% |
| Nc1c(F)c(-c2ccc(OC(F)F)nc2)nc(C(=O)O)c1Cl | 60 to 74% |
| Nc1c(F)c(-c2ccc(C3CC3)nc2)nc(C(=O)O)c1Cl | 45 to 59% |

###

Tested on: HORSS
ASSAY_SUMMARY: Post-Emergent Test III (Wheat and Barley)
Assay type: in vivo
PROTOCOL_CONDITIONS: Hordeum vulgare, post-emergence, 504 h; 70 g ai/ha, postemergence; read-out: Visual Growth Reduction (%) 21 Days After Application, HORSS
TEST_READOUT: pest or weed control at 70 g/ha

| COMPOUND | OBS_VALUE |
| --- | --- |
| COC(=O)c1nc(-c2ccc(C(F)(F)F)nc2)c(F)c(N)c1Cl [Compound 59] | 75 to 84% |
| COC(=O)c1nc(-c2ccc(C3CC3)nc2)c(F)c(N)c1Cl [Compound 49] | 85 to 94% |
| COC(=O)c1nc(-c2ccc(Cl)c(F)c2OC)c(F)c(N)c1Cl [Compound 39] | 60 to 74% |
| COC(=O)c1nc(-c2ccc(OC(F)F)nc2)c(F)c(N)c1Cl [Compound 71] | 60 to 74% |

###

Tested on: SETVI (green foxtail)
ASSAY_SUMMARY: Post-Emergent Test III (Wheat and Barley)
Assay type: in vivo, Setaria viridis
PROTOCOL_CONDITIONS: Setaria viridis, post-emergence, 504 h; 70 g ai/ha, postemergence; read-out: Visual Growth Reduction (%) 21 Days After Application, SETVI
Protocol: Seeds of the desired test plant species were planted in Sun Gro MetroMix® 306 planting mixture, which typically has a pH of 6.0 to 6.8 and an organic matter content of about 30 percent, in plastic pots with a surface area of 103.2 square centimeters (cm^2). […] A weighed amount, determined by the highest rate to be tested, of each test compound was placed in a 25 mL glass vial and was dissolved in 4 mL of a 97:3 v/v mixture of acetone and DMSO to obtain concentrated stock solutions. […]

| MOL_SMILES | MEASUREMENT_TARGET | pest or weed control at 70 g/ha |
| --- | --- | --- |
| Nc1c(Cl)c(C(=O)O)nc(-c2ccc(C(F)(F)F)nc2)c1Cl | SETVI (green foxtail) | 60 to 74% |
| COC(=O)c1nc(-c2ccc(OC(F)F)nc2)c(F)c(N)c1Cl | SETVI (green foxtail) | 45 to 59% |
| COC(=O)c1nc(-c2ccc(Cl)c(F)c2OC)cc(N)c1Cl | SETVI (green foxtail) | 60 to 74% |
| COC(=O)c1nc(-c2ccc(C3CC3)nc2)c(F)c(N)c1Cl | SETVI (green foxtail) | 95 to 100% |
| COC(=O)c1nc(-c2ccc(C(F)(F)F)nc2)c(F)c(N)c1Cl | SETVI (green foxtail) | 85 to 94% |
